Known Activity of a selection of compounds
- target: Monoamine oxidase (Mus musculus, UniProt Q8BW75+Q64133)
- Sequence (Q8BW75 whole entry): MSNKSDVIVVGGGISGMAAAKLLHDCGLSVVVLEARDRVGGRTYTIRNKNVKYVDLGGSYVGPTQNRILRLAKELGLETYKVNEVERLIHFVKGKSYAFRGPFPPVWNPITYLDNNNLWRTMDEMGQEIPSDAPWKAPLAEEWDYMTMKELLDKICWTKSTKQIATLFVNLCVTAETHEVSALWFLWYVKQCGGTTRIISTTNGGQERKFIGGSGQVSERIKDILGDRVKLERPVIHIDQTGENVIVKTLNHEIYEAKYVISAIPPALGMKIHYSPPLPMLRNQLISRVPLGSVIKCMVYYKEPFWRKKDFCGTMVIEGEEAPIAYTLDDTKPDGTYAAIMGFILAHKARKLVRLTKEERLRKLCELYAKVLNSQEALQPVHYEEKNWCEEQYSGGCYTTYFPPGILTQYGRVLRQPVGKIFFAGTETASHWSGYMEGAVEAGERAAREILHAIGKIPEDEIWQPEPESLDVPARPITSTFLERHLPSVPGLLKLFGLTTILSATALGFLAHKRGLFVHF
- Sequence (Q64133 whole entry): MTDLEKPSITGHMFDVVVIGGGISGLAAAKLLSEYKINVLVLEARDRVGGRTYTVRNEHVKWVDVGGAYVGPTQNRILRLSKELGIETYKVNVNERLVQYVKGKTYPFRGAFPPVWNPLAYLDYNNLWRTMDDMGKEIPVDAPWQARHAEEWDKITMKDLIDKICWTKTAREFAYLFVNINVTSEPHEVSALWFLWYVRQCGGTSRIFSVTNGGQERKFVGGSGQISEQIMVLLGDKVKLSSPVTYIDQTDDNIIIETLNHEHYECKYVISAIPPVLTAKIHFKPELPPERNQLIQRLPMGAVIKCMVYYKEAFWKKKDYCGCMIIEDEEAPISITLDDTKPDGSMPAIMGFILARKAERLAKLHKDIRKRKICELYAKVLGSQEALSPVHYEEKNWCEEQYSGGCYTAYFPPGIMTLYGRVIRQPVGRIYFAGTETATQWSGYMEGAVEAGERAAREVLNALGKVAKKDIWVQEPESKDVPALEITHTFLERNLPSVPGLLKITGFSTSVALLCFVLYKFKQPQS
- assay_info: The ability (25 umol/kg/day) to inactivate monoamine oxidase (MAO) was tested on brain mitochondrial membranes of mice, for 3 days
- Assay type: functional
- experimental_parameters: 72 h
State the answer as a number, implicitly in nmol/min/mg.

> print(dat)
                            chemical.smiles                                    target  result.units  result.value
1  C#CCN(C(=O)OC1=CCN(C)CC1)[C@@H](C)Cc1ccccc1  Monoamine oxidase (Mus musculus, UniProt Q8BW75+Q64133)   nmol/min/mg          3.75

Would you mind telling me what Activity value was observed for "C#CCN(C(=O)OC1=CCN(C)CC1)[C@H](C)Cc1ccccc1" ?
1.36
